target: PDGF-receptor beta enzyme comprising the tyrosine kinase domain (Homo sapiens, UniProt P09619); construct: from amino acid 545 to 1106 of GenBank Access NO: AAA36427; assay: Inhibition of PDGF-receptor kinase activity (cell-free, PLC1 peptide, 33P Flashplate); type: biochemical; conditions: PDGF-R kinase activity; read-out: IC50
Sequence (P09619 545-1106): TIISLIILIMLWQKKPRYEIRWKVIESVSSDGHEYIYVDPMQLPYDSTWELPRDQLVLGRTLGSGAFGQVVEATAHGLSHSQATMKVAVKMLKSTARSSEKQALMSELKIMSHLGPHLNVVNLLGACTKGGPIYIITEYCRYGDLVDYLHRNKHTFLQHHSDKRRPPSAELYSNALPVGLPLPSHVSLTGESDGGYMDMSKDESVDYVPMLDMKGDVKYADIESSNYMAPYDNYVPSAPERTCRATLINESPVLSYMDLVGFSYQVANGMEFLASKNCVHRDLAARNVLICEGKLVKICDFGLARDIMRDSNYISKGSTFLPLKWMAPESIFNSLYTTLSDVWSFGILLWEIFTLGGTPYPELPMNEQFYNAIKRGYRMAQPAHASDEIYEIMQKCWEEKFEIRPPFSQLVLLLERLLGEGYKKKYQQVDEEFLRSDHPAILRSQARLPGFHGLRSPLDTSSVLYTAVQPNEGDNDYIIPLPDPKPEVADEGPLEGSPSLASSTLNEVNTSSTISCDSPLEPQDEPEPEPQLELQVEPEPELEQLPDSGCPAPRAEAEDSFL
pIC50: −log10 of the molar value.
Rule: pIC50 of 7 or more gives yes (1); anything lower gives no (0).

Here are 6 molecules together with their reported answers.
> print(dat)
                                   molecule  qualitative.label
1  CCN(CC)C(=O)CC(=O)n1nc(Nc2cccc(F)c2)c2c1-c1cc(OC)c(OC)cc1C2 [Compound 537]             no (0)
2  C=C(C)C(=O)OCCNC(=O)n1nc2c(c1Nc1cccc(F)c1)Cc1cc(OC)c(OC)cc1-2 [Compound 528]             no (0)
3  COc1cc2c(cc1OC)-c1nn(Cc3ccc(OC(C)=O)cc3)c(Nc3cccc(F)c3)c1C2 [Compound 499]             no (0)
4  COc1cc2c(cc1OC)-c1c(c(Nc3cccc(F)c3)nn1C(=O)CC(=O)N1CCCC1)C2 [Compound 536]             no (0)
5  Cc1ccc2c(c1)-c1n[nH]c(Nc3cccc(C(C)O)c3)c1C2 (centres unmarked) [Compound 310]            yes (1)
6  COc1cc2c(cc1OC)-c1c(c(Nc3cccc(F)c3)nn1C(=O)NCCN)C2 [Compound 516]             no (0)

q: pIC50 >= 7 for COc1cc2c(cc1OC)-c1c(c(Nc3cccc(F)c3)nn1C(=O)NCCNCCO)C2 [Compound 523] ?
a: no (0)

q: Exam item: decide whether the reported pIC50 for COc1ccc(Nc2[nH]nc3c2Cc2cc(OC)c(OC)cc2-3)cc1Cl [Compound 277] is at least 7.
a: no (0)

q: Check if pIC50 >= 7 (inclusive). Item: COc1cc2c(cc1OCC(O)CN1CCCC1)Cc1c-2n[nH]c1Nc1cccc(Cl)c1 (centres unmarked) [Compound 282]
a: yes (1)

q: Please check the record COc1cc2c(cc1OC)-c1c(c(Nc3cccc(Br)c3)nn1C)C2 [Compound 91] and state if its pIC50 is at or above 7.
a: no (0)

q: Check the entry COc1cc2c(cc1Br)Cc1c-2n[nH]c1Nc1cccc(F)c1 [Compound 369] : does pIC50 equal or exceed 7?
a: yes (1)

q: Textbook exercise: given the entry Fc1ccc2c(c1)-c1n[nH]c(Nc3ccccc3)c1C2 [Compound 299] , state whether its pIC50 is greater than or equal to 7.
a: yes (1)

q: API: above_or_equal(metric=pIC50, cutoff=7) for item Cc1ccc(Cl)cc1Nc1[nH]nc2c1Cc1ccccc1-2 [Compound 338]
a: no (0)

q: Check if pIC50 >= 7 (inclusive). Item: CCOc1cc2c(cc1OCC)-c1n[nH]c(NCc3ccccc3OC)c1C2 [Compound 296]
a: no (0)

q: Determine whether this molecule has pIC50 no lower than 7: CCOc1cc2c(cc1OCCCO)-c1n[nH]c(Nc3cccc(F)c3)c1C2 [Compound 365]
a: yes (1)

q: Would you say COc1cc2c(cc1OC)-c1n[nH]c(Nc3ccc(OCc4ccccc4)cc3)c1C2 [Compound 218] shows pIC50 at minimum 7?
a: no (0)

q: Is the recorded value of pIC50 equal to or greater than 7 for this molecule? Fc1ccc2c(c1)Cc1c-2n[nH]c1Nc1cc(F)ccc1F [Compound 236]
a: yes (1)
